The reported numbers originate from ChEMBL document CHEMBL1131977.

system: Streptococcus pyogenes; assay: In vitro antibacterial activity against Streptococcus pyogenes ATCC 8668 (S.p.1).; assay type: functional
measured.attribute: MIC
The reply should consist of the numeric value with the unit placed after it.

Task: Report MIC for CC(=O)NC[C@H]1CN(c2ccc(N3CCN(C(=O)c4cc(-c5nccs5)no4)CC3)c(F)c2)C(=O)O1 tested on Streptococcus pyogenes.
Result: 0.25 µg/mL

Task: Under Streptococcus pyogenes: MIC value of COc1cc(C(=O)N2CCN(c3ccc(N4C[C@H](CNC(C)=O)OC4=O)cc3F)CC2)on1 ?
Result: 0.5 µg/mL

Task: // lookup MIC | system=Streptococcus pyogenes | key= CC(=O)NC[C@H]1CN(c2ccc(N3CCN(C(=O)c4cccs4)CC3)c(F)c2)C(=O)O1
Result: 1 µg/mL

Task: Write down the reported MIC of CC(=O)NC[C@H]1CN(c2ccc(N3CCN(C(=O)c4cc(O)no4)CC3)c(F)c2)C(=O)O1 , test system: Streptococcus pyogenes.
Result: 16 µg/mL

* * *

test system: Staphylococcus epidermidis; assay: In vitro antibacterial activity against Staphylococcus epidermis (S.e.1) […].; type: functional
For each entry below, report its MIC value.
Just the number in µg/mL, nothing appended.

Task: Look at this compound and give its reported MIC. CC(=O)NC[C@H]1CN(c2ccc(N3CCN(C(=O)c4cc(-c5csnn5)no4)CC3)c(F)c2)C(=O)O1
Result: 0.5

Task: If you can, please state the reported MIC value of CC(=O)NC[C@H]1CN(c2ccc(N3CCN(C(=O)CO)CC3)c(F)c2)C(=O)O1 [EPEREZOLID] .
Result: 0.5

Task: // returns reported MIC for input COc1cccc(-c2cc(CN3CCN(c4ccc(N5C[C@H](CNC(C)=O)OC5=O)cc4F)CC3)on2)c1
Result: 4

Task: What MIC value was documented for this compound, CC(=O)NC[C@H]1CN(c2ccc(N3CCN(C(=O)c4cc(COC(N)=O)no4)CC3)c(F)c2)C(=O)O1 ?
Result: 0.5

Task: Given the compound CC(=O)NC[C@H]1CN(c2ccc(N3CCN(C(=O)c4cc(C#N)no4)CC3)c(F)c2)C(=O)O1 , what is its reported MIC?
Result: 0.5

Task: Tell me the measured MIC of CC(=O)NC[C@H]1CN(c2ccc(N3CCN(Cc4cc(-c5ccc(Oc6ccccc6)cc5)no4)CC3)c(F)c2)C(=O)O1 , please.
Result: 2

Task: So what's the measured MIC for this one? CC(=O)NC[C@H]1CN(c2ccc(N3CCN(C(=O)c4cc(Br)no4)CC3)c(F)c2)C(=O)O1
Result: 1

* * *

system: Staphylococcus epidermidis; test: In vitro antibacterial activity against Staphylococcus epidermis (S.e.1) […].; assay type: functional
measured.attribute: MIC (µg/mL)
# unit: µg/mL | format: bare number

Task: Recorded MIC for COc1cc(CN2CCN(c3ccc(N4C[C@H](CNC(C)=O)OC4=O)cc3F)CC2)on1 , please?
Result: 2

Task: Report MIC for CC(=O)NC[C@H]1CN(c2ccc(N3CCN(C(=O)c4cc(C)no4)CC3)c(F)c2)C(=O)O1 please.
Result: 0.5

Task: Could you tell me which MIC is on file for CC(=O)NC[C@H]1CN(c2ccc(N3CCN(C(=O)c4cc(-c5nccs5)no4)CC3)c(F)c2)C(=O)O1 ?
Result: 0.5
